Target: TBXA2R (Homo sapiens, UniProt P21731)
Construct: purchased Promega (in-house HiBiT-GPCR construct library, NanoBRET)
Sequence (P21731 whole entry): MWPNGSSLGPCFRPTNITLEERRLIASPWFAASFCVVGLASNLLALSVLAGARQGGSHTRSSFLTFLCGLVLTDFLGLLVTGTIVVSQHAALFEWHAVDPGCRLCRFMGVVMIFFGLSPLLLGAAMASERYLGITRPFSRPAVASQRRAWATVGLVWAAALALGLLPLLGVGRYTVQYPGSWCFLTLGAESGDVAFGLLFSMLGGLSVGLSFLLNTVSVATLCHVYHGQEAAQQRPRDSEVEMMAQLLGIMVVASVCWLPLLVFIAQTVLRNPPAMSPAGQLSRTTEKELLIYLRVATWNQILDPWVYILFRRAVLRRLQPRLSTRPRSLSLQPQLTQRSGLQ
Assay: NanoBRET screen HiBiT-TBXA2R in HEK293
Assay type: binding
Details: TBXA2R; tracer 1μM
Entries annotated with measured NanoBRET Fold Response

MOLECULE: CC(C)N(CC[C@H](c1ccccc1)c1cc(CCNC(=O)CCOCCOCCOCCOCCNC(=O)CCc2ccc3n2[B-](F)(F)[N+]2=C(c4ccc[nH]4)C=CC2=C3)ccc1O)C(C)C [Tolterodine-2-NB590]
MEASUREMENT_TARGET: TBXA2R (Homo sapiens, UniProt P21731)
NanoBRET Fold Response: 1.01
//
MOLECULE: COc1ccccc1N1CCN(CCCCN2C(=O)c3ccc(CNC(=O)CCOCCOCCOCCOCCNC(=O)CCc4ccc5n4[B-](F)(F)[N+]4=C(c6ccc[nH]6)C=CC4=C5)cc3C2=O)CC1 [NAN-190-2-NB590]
MEASUREMENT_TARGET: TBXA2R (Homo sapiens, UniProt P21731)
NanoBRET Fold Response: 1.06
//
MOLECULE: Cc1nc2n(c(=O)c1CCN1CCC(c3noc4cc(F)ccc34)CC1)CCCC2OC(=O)NCCOCCOCCOCCOCCNC(=O)CCc1ccc2n1[B-](F)(F)[N+]1=C(c3ccc[nH]3)C=CC1=C2 (stereo not drawn) [Risperidone-2-NB590]
MEASUREMENT_TARGET: TBXA2R (Homo sapiens, UniProt P21731)
NanoBRET Fold Response: 1.01
//
MOLECULE: CCCn1c(=O)c2[nH]c(-c3ccc(OCC(=O)NCCNC(=O)CCOCCNC(=O)c4ccc(CNC(=O)CCc5ccc6n5[B-](F)(F)[N+]5=C(c7ccc[nH]7)C=CC5=C6)cc4)cc3)nc2n(CCC)c1=O [XAC-3-NB590]
MEASUREMENT_TARGET: TBXA2R (Homo sapiens, UniProt P21731)
NanoBRET Fold Response: 1.04
//
MOLECULE: O=C(CCc1ccc2n1[B-](F)(F)[N+]1=C(c3ccc[nH]3)C=CC1=C2)NCCOCCOCCNC(=O)OCCOCCN1CCN(C2=Nc3ccccc3Sc3ccccc32)CC1 [Quetiapine-a-2-NB590]
MEASUREMENT_TARGET: TBXA2R (Homo sapiens, UniProt P21731)
NanoBRET Fold Response: 1.05
//
MOLECULE: O=C(CCOCCOCCOCCOCCNC(=O)CCc1ccc2n1[B-](F)(F)[N+]1=C(c3ccc[nH]3)C=CC1=C2)NCCCN1CCN(C2=Nc3ccccc3Oc3ccc(Cl)cc32)CC1 [Loxapine-a-2-NB590]
MEASUREMENT_TARGET: TBXA2R (Homo sapiens, UniProt P21731)
NanoBRET Fold Response: 1.03
